Data origin, for the record: patent EP4471049A1

ASSAYED SYSTEM: T1, human IL-23R endogenously expressed on DB cells (human, UniProt Q5VWK5 24-629)
T1 sequence (looked up): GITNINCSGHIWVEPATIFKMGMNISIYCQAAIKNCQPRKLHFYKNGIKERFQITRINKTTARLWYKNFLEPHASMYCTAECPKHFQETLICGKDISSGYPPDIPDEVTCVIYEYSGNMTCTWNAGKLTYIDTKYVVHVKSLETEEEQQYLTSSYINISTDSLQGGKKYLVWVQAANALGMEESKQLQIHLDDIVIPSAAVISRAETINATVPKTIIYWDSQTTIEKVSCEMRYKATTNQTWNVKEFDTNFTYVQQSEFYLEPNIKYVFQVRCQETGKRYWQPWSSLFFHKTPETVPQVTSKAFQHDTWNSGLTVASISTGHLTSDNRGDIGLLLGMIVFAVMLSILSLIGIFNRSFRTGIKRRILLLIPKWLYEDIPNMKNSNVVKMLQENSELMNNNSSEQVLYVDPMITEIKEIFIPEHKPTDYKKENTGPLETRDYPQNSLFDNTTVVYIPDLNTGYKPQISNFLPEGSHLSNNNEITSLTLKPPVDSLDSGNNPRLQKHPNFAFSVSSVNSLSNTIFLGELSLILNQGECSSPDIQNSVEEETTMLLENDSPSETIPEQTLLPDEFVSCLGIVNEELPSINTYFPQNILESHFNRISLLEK
EXPERIMENT: cell-based or functional assay
*1 amine or outer side, *2 acyl side, *3 side chain or, on linkers, in order; H or OH if unused. Bridges are numbered along the chain shown (N, C = ends). [ ]: non-standard residue; d: D form. 4‑Aminomethyl‑phenylacetyl = 4-aminomethyl-phenylacetyl unit, its amine closes the lactam, O=C(Cc1ccc(CN[*:1])cc1)[*:2]; 2Nal = N[C@@H](Cc1ccc2ccccc2c1)C(=O)O; AEF = NCCOc1ccc(C[C@H](N)C(=O)O)cc1; 3Pal = N[C@@H](Cc1cccnc1)C(=O)O; d3Pal = N[C@H](Cc1cccnc1)C(=O)O; αMeL = CC(C)C[C@](C)(N)C(=O)O; 3Amb = NCc1cccc(C(=O)O)c1; Dab = NCC[C@H](N)C(=O)O
MEASURED PARAMETER: hIL-23 (pSTAT3) antagonist IC50 (nM)
Dear colleague, please return just the value in nM, with no unit written.

Previously resolved entries follow.
BINDER | hIL-23 (pSTAT3) antagonist IC50, nM
[3Amb]SCWQCW[2Nal]LER-NH2 (lactam N-10; bridge 3-6; not fully specified (bridges); printed as [(3-Aminomethyl)benzoyl](1c)*SC(2a)WQC(2a)W[2-Nal]LE(1c)R-[NH2]) [Ref 37] | 45
[4‑Aminomethyl‑phenylacetyl]SEWF[Dab][AEF][2Nal][αMeL]E[Dab][3Pal]-NHMe (lactam N-10, 3-6; SMILES CNC(=O)[C@H](Cc1cccnc1)NC(=O)[C@H](CCN)NC(=O)[C@@H]1CCC(=O)NCc2ccc(cc2)CC(=O)N[C@@H](CO)C(=O)N[C@H]2CCC(=O)NCC[C@H](NC(=O)[C@H](Cc3ccccc3)NC(=O)[C@H](Cc3c[nH]c4ccccc34)NC2=O)C(=O)N[C@@H](Cc2ccc(OCCN)cc2)C(=O)N[C@@H](Cc2ccc3ccccc3c2)C(=O)N[C@@](C)(CC(C)C)C(=O)N1) [Compound 23] | 5.2
[4‑Aminomethyl‑phenylacetyl]SCWQC[AEF][2Nal][αMeL]E[Dab]-NH2 (lactam N-10; bridge 3-6; not fully specified (bridges); printed as [4-Aminomethyl-phenylacetyl](1c)*SC(2a)WQC(2a)[Y(2-aminoethoxy)][2-Nal][2-Me-Leu]E(1c)[Dab]-[NH2]) [Ref 82] | 11
[4‑Aminomethyl‑phenylacetyl]SEWA[Dab][AEF][2Nal][αMeL]E[Dab][3Pal]-NHMe (lactam N-10, 3-6; SMILES CNC(=O)[C@H](Cc1cccnc1)NC(=O)[C@H](CCN)NC(=O)[C@@H]1CCC(=O)NCc2ccc(cc2)CC(=O)N[C@@H](CO)C(=O)N[C@H]2CCC(=O)NCC[C@H](NC(=O)[C@H](C)NC(=O)[C@H](Cc3c[nH]c4ccccc34)NC2=O)C(=O)N[C@@H](Cc2ccc(OCCN)cc2)C(=O)N[C@@H](Cc2ccc3ccccc3c2)C(=O)N[C@@](C)(CC(C)C)C(=O)N1) [Compound 22] | 3.4

Here is the next item to consider.
According to the records, this binder [4‑Aminomethyl‑phenylacetyl]SEWQ[Dab][AEF][2Nal][αMeL]E[Dab][d3Pal]-NH2 (lactam N-10, 3-6) [Compound 5] displays hIL-23 (pSTAT3) antagonist IC50 of 2.1
